test system: Geotrichum candidum; assay: Antifungal activity against Geotrichum candidum; type: functional
Metric Name: MIC (µg/mL)
Give bare numbers, in µg/mL.

# Test Smiles, MIC (µg/mL)
measured = [
    ("Cc1nn(-c2ccccc2)c2nc3sc(C(=O)OCC(=O)c4ccccc4)c(N)c3nc12", 4),
    ("CCOC(=O)Cc1nc2c3[se]c4nc5c(nc4c3ncn2n1)c(C)nn5-c1ccccc1", 6),
]

Please look at the items below and tell me MIC for each one, in order.
1. Cc1nc2c(sc3nc4c(nc32)c(C)nn4-c2ccccc2)c(=O)o1
2. Clc1ccccc1C(c1ccccc1)(c1ccccc1)n1ccnc1
3. Cc1nn(-c2ccccc2)c2nc3sc4c(c3nc12)N=C(N)COC4=O
4. CCOC(=O)c1sc2nc3c(nc2c1N)c(C)nn3-c1ccccc1

4
5
4
5

====

Consider the following compounds; for each one, report its inhibition zone (IZ).
system: Aspergillus niger; assay: Antifungal activity against Aspergillus niger assessed as diameter of zone inhibition; format: functional
Field: value (include unit after the number)

# Compound, Metric Name, Recorded Result
rows = [
    ("C/C=C/N1CCN(c2nc3ccccc3nc2-c2cccc(C)c2)CC1", "inhibition zone (IZ)", "15 mm"),
]

Please look at the items below and tell me inhibition zone (IZ) for each one, in order.
1. Clc1ccc(C(Cn2ccnc2)OCc2csc3c(Cl)cccc23)c(Cl)c1 (centres undefined)
2. C=CCNN1CCN(c2nc3ccccc3nc2-c2cccc(C)c2)CC1
3. Cc1cccc(-c2nc3ccccc3nc2N2CCN(C)CC2)c1

["24 mm", "14 mm", "16 mm"]

====

tested on: Candida albicans; experiment: Antimicrobial activity against Candida albicans ATCC 64124 assessed as reduction in microbial growth by CLSI protocol based micro-broth dilution method; assay type: functional
Metric Name: MIC (µg/mL)
Numbers only, in µg/mL.

Reference set (2 entries):
# Compound, Unit Descriptor, MIC
rows = [
    ("Cc1nc(-c2ccc(C(C)(C)C)cc2)sc1-c1ccnc(N[C@H]2CCCC[C@@H]2N)n1", "µg/mL", 4),
    ("Cc1nc(-c2ccc(C(C)(C)C)cc2)sc1-c1ccnc(N[C@H]2CCCCC2CN)n1 (stereo partly specified)", "µg/mL", 4),
]

Please look at the items below and tell me MIC for each one, in order.
1. Cc1nc(-c2ccc(C(C)(C)C)cc2)sc1-c1ccnc(N[C@H]2CC[C@H](N)CC2)n1
2. Cc1nc(-c2ccc(C(C)(C)C)cc2)sc1-c1ccnc(NCCCN)n1
3. C[C@@H]1[C@H](O)[C@@H](C)/C=C/C=C/C=C/C=C/C=C/C=C/C=C/[C@H](O[C@@H]2O[C@H](C)[C@@H](O)[C@H](N)[C@@H]2O)C[C@@H]2O[C@](O)(C[C@@H](O)C[C@@H](O)[C@H](O)CC[C@@H](O)C[C@@H](O)CC(=O)O[C@H]1C)C[C@H](O)[C@H]2C(=O)O [AMPHOTERICIN B]

1. 4
2. 4
3. 1

====

system: Candida albicans; assay: Antifungal activity against Candida albicans assessed as zone of inhibition by serial dilution and disc diffusion method; type: functional; further: test concentration or dose not given here
Metric Name: inhibition zone (IZ) (mm)
One number for each entry, in mm.

# Test Smiles, Tgt, Unit Descriptor, inhibition zone (IZ)
measured = [
    ("COc1cccc(/C=N/Nc2ncnc3[nH]ccc23)c1OC", "Candida albicans", "mm", 30),
    ("OC(Cn1cncn1)(Cn1cncn1)c1ccc(F)cc1F", "Candida albicans", "mm", 24),
]

Please look at the items below and tell me inhibition zone (IZ) for each one, in order.
1. COc1cccc(/C=N/Nc2ncnc3[nH]ccc23)c1
2. COc1ccc(OC)c(/C=N/Nc2ncnc3[nH]ccc23)c1
3. COc1ccc(/C=N/Nc2ncnc3[nH]ccc23)c(OC)c1
4. COc1ccc(/C=N/Nc2ncnc3[nH]ccc23)cc1
5. Brc1cc(Br)cc(/C=N/Nc2ncnc3[nH]ccc23)c1

30
30
30
30
21

Entry under test: COc1ccccc1/C=N/Nc1ncnc2[nH]ccc12 . Its inhibition zone (IZ) was 30

====

Consider the following compounds; for each one, report its inhibition zone (IZ).
test system: Aspergillus niger; experiment: Antifungal activity against Aspergillus niger assessed as zone of inhibition by disc diffusion method; assay type: functional; further: test concentration or dose not given here
One number for each entry, in mm.

# Compound, inhibition zone (IZ) (mm)
data = [
    ("COC1=CC(=O)C[C@@H](C)[C@]12Oc1c(Cl)c(OC)cc(OC)c1C2=O [GRISEOFULVIN]", 22),
]

Please look at the items below and tell me inhibition zone (IZ) for each one, in order.
1. Cc1ccc(C2c3c([nH]c(=O)[nH]c3=O)OC(NC(=O)/C=C/C(=O)O)C2C#N)cc1 (configuration not stated)
2. CCOC(=O)c1c(C)nc2sc3c(SCC(=O)Nc4ccc(C)cc4)ncnc3c2c1-c1cccs1
3. C[C@@H](c1ncncc1F)[C@](O)(Cn1cncn1)c1ccc(F)cc1F [VORICONAZOLE]
4. CC1=NN(c2ccccc2)C2N=C3SCCN3C(c3ccc(O)cc3)C12 (configuration not stated)

[10, 24, 20, 24]

Please look at the items below and tell me inhibition zone (IZ) for each one, in order.
1. CCOC(=O)c1c(C)nc2sc3c(-n4nc(C)cc4C)ncnc3c2c1-c1cccs1
2. CC1=NN(c2ccccc2)C2N=C3SCCN3C(c3ccccc3O)C12 (configuration not stated)
3. CC1=NN(c2ccccc2)C2N=C3SCCN3C(c3ccccc3[N+](=O)[O-])C12 (configuration not stated)
4. CC1=NN(c2ccccc2)C2N=C3SCCN3C(c3ccccc3Cl)C12 (configuration not stated)

1: 24; 2: 24; 3: 24; 4: 24

Please look at the items below and tell me inhibition zone (IZ) for each one, in order.
1. CC1=NN(c2ccccc2)C2N=C3SCCN3C(c3cccc([N+](=O)[O-])c3)C12 (configuration not stated)
2. C[C@@H]1[C@H](O)[C@@H](C)/C=C/C=C/C=C/C=C/C=C/C=C/C=C/[C@H](O[C@@H]2O[C@H](C)[C@@H](O)[C@H](N)[C@@H]2O)C[C@@H]2O[C@](O)(C[C@@H](O)C[C@@H](O)[C@H](O)CC[C@@H](O)C[C@@H](O)CC(=O)O[C@H]1C)C[C@H](O)[C@H]2C(=O)O [AMPHOTERICIN B]
3. COc1ccc(C2c3c([nH]c(=O)[nH]c3=O)OC3N=CN(c4ccccc4N)C(=N)C32)cc1 (configuration not stated)
4. COc1ccc(C2c3c([nH]c(=O)[nH]c3=O)OC3N=CN(c4cc(C)ccn4)C(=N)C32)cc1 (configuration not stated)
5. COc1ccc(C2c3c([nH]c(=O)[nH]c3=O)OC3N=CN(C(N)=O)C(=N)C32)cc1 (configuration not stated)
6. O=c1c(C(O)c2ccccc2)c2sc(S)c(-c3ccccc3)n2c2nc(-c3ccccc3)c(-c3ccccc3)n12 (configuration not stated)
7. O=c1c(C(O)c2ccccc2)c(SCc2ccccc2)[nH]c2nc(-c3ccccc3)c(-c3ccccc3)n12 (configuration not stated)

24
17
10
10
10
15
15

Entry under test: Cc1ccc(C2c3c([nH]c(=O)[nH]c3=O)OC(N)C2C#N)cc1 (configuration not stated) . Its inhibition zone (IZ) was 10

====

Consider the following compounds; for each one, report its MIC.
tested on: Candida tropicalis; test: Antifungal activity against Candida tropicalis assessed as inhibition of fungal growth; assay type: functional

Reference set (5 entries):
# Test Smiles, MIC
measured = [
    ("COc1cc(-c2cc(-c3cnc(Cl)cn3)nc(N)n2)ccc1O", "107 µM"),
    ("Cc1ccc(-c2cc(-c3cnc(Cl)cn3)nc(N)n2)cc1", "97.3 µM"),
    ("Nc1nc(-c2ccc(O)cc2)cc(-c2cnc(Cl)cn2)n1", "97.3 µM"),
    ("COc1ccc(-c2cc(-c3cnc(Cl)cn3)nc(N)n2)c(OC)c1", "101 µM"),
    ("Nc1nc(-c2ccc(F)cc2)cc(-c2cnc(Cl)cn2)n1", "97.3 µM"),
]

Note: attention shifts to another entry.
Entry under test: Nc1nc(-c2ccncc2)cc(-c2cnc(Cl)cn2)n1 . Its MIC was 110 µM

====

Consider the following compounds; for each one, report its EC50.
system: Aspergillus niger; experiment: Antifungal activity against Aspergillus niger MTCC 282 by disc diffusion method; format: functional, organism-based
Numbers only, in µg/mL.

Reference set (3 entries):
# Compound, EC50 [µg/mL]
data = [
    ("CC(=O)N1N=C(C2=C(C)NC(=O)NC2c2ccc(F)cc2)OC1c1ccccc1 (centres undefined)", 0.15),
    ("CC(=O)N1N=C(C2=C(C)NC(=O)NC2c2ccc(F)cc2)OC1c1ccc(Cl)cc1 (centres undefined)", 0.2),
    ("CC(=O)N1N=C(C2=C(C)NC(=O)NC2c2ccc(F)cc2)OC1c1cccc([N+](=O)[O-])c1 (centres undefined)", 0.16),
]

Note: attention shifts to another entry.
Entry under test: CC(=O)N1N=C(C2=C(C)NC(=O)NC2c2ccc(F)cc2)OC1c1ccc([N+](=O)[O-])cc1 (centres undefined) . Its EC50 was 0.14
